src = patent US11667651B2

Assign IC50 to each entry below.
TARGET_OF_ASSAY: PIP4K2B (Homo sapiens, UniProt P78356)
Sequence (P78356 whole entry, species assumed): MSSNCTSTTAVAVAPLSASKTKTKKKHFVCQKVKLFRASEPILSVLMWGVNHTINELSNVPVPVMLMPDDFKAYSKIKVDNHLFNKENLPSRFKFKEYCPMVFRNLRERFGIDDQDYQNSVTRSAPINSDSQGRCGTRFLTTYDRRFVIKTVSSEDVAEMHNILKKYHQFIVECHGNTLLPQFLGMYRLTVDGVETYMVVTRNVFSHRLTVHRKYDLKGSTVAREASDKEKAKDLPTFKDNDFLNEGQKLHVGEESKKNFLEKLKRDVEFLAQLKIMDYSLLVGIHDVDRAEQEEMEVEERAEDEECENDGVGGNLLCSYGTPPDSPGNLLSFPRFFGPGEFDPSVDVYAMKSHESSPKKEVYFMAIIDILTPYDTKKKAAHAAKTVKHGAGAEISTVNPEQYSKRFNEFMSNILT

Could you tell me which IC50 is on file for `CN(C)C(=O)c1ccc(-c2ccc(Nc3cncc(N4CCN(Cc5cccc(NC(=O)CCc6cccc(N)c6)c5)C4=O)c3)nc2)cc1` ?
10 to 100 nM

Could you tell me which IC50 is on file for `CN(C)C(=O)c1ccc(-c2ccc(Nc3cncc(N4CCN(Cc5ccc(N)cc5)C4=O)c3)nc2)cc1` ?
10 to 100 nM

Could you tell me which IC50 is on file for CC1C[C@H]2COc3ncc(Nc4ccc(-c5ccc(N6CCCC6=O)cc5)cn4)cc3N2C1=O (stereo partly drawn) ?
10 to 100 nM

Could you tell me which IC50 is on file for `CN(C)C(=O)c1ccc(-c2ccc(Nc3cncc(NC(=O)c4ccnc(N)c4)c3)nc2)cc1` ?
10 to 100 nM

Could you tell me which IC50 is on file for `CN(C)C(=O)c1ccc(-c2ccc(Nc3cncc(NC(=O)c4ccc5cc[nH]c5c4)c3)nc2)cc1` ?
10 to 100 nM

Could you tell me which IC50 is on file for `CN(c1cncc(Nc2ccc(-c3ccc(N4CCCC4=O)cc3)cn2)c1)S(C)(=O)=O` ?
10 to 100 nM

Could you tell me which IC50 is on file for CC(O)C(=O)N1CCOc2ncc(Nc3ccc(-c4ccc(N5CCCC5=O)cc4)cn3)cc21 (stereo not drawn) ?
10 to 100 nM

Could you tell me which IC50 is on file for `O=C1CCCN1c1ccc(-c2cnc(Nc3cncc(N4CCN(Cc5cscn5)C4=O)c3)cn2)cc1` ?
10 to 100 nM

Could you tell me which IC50 is on file for `CN(C)C/C=C/C(=O)Nc1ccc(CCC(=O)Nc2cncc(Nc3ccc(-c4ccc(C(=O)N(C)C)cc4)cn3)c2)cc1` ?
10 to 100 nM

Could you tell me which IC50 is on file for `CN(C)C(=O)c1ccc(-c2ccc(Nc3cncc(OC(F)F)c3)nc2)cc1` ?
> 1000 nM

Could you tell me which IC50 is on file for `Cc1cnnn1-c1ccc(-c2cnc(Nc3cnc4c(c3)N3C(=O)CC[C@H]3CO4)nc2C(C)C)cc1` ?
1 to 10 nM

Could you tell me which IC50 is on file for `CN(C)C(=O)c1ccc(-c2ccc(Nc3cncc(NC(=O)C4CCOCC4)c3)nc2)cc1` ?
10 to 100 nM

Could you tell me which IC50 is on file for `CN(C)C(=O)c1ccc(-c2ccc(Nc3cnc4c(c3)CCCO4)nc2)cc1` ?
10 to 100 nM

Could you tell me which IC50 is on file for `CN(C)C/C=C/C(=O)Nc1cccc(CCC(=O)Nc2cccc(CN3CCN(c4cncc(Nc5ccc(-c6ccc(C(=O)N(C)C)cc6)cn5)c4)C3=O)c2)c1` ?
10 to 100 nM

Could you tell me which IC50 is on file for `CN1CCN(c2cncc(Nc3ccc(-c4ccc(N5CCCC5=O)cc4)cn3)c2)S1(=O)=O` ?
10 to 100 nM

---

TARGET_OF_ASSAY: PIP4K2A (Homo sapiens)
Sequence (P48426 whole entry, species assumed): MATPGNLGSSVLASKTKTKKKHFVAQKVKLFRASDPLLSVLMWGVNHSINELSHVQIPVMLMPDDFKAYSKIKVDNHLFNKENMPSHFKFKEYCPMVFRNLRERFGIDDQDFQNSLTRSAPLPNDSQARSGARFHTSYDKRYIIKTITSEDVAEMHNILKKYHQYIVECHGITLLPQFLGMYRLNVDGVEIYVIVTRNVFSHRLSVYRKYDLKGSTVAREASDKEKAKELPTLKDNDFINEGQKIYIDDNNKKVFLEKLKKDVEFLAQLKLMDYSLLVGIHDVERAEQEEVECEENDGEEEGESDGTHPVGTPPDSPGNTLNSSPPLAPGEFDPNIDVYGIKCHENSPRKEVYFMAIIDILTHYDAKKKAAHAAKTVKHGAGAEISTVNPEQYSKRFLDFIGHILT
METHOD_NOTES: ADP-glo kinase assay PIP4K 2A (Table 3)
Type: biochemical
Parameters: made in house; host or cells: E. coli
DETAILS: compounds listed under IC50 bins
Assign IC50 to each entry below.

Could you tell me which IC50 is on file for Cc1cc(N2CCCC2=O)ccc1-c1cnc(Nc2cnc3c(c2)N2C(=O)C4(CC4)C[C@H]2CO3)nc1 [Example 203] ?
1 to 10 nM

Could you tell me which IC50 is on file for CNC(=O)c1cccc2ncc(Nc3ccc(-c4ccc(N5CCCC5=O)cc4)cn3)cc12 [Example 146] ?
10 to 100 nM

Could you tell me which IC50 is on file for CN(C)C(=O)c1ccc(-c2ccc(Nc3cncc(NC(=O)c4ccccn4)c3)nc2)cc1 [Example 128] ?
100 to 1000 nM

Could you tell me which IC50 is on file for O=C1NCCN1c1cncc(Nc2ccc(-c3ccc(N4CCCC4=O)c(F)c3)cn2)c1 [Example 272] ?
100 to 1000 nM

Could you tell me which IC50 is on file for CN(C)C(=O)c1ccc(-c2ccc(Nc3cncc(NC(=O)c4ccc(N)cc4)c3)nc2)cc1 [Example 116] ?
10 to 100 nM

Could you tell me which IC50 is on file for CN(C)C(=O)c1ccc(-c2ccc(Nc3cncc(NC(=O)CCc4cccc(N)c4)c3)nc2)cc1 [Example 102] ?
10 to 100 nM

Could you tell me which IC50 is on file for Cc1cc(N2CCCC2=O)ccc1-c1ccc(Nc2cnc3c(c2)N2C(=O)CC[C@H]2CO3)nc1 [Example 192] ?
10 to 100 nM

Could you tell me which IC50 is on file for CC(O)C(=O)N1CCOc2ncc(Nc3ccc(-c4ccc(N5CCCC5=O)cc4)cn3)cc21 (stereo not drawn) [Example 234] ?
1 to 10 nM

Could you tell me which IC50 is on file for CN1CCN(c2cncc(Nc3ccc(-c4ccc(N5CCCC5=O)cc4)cn3)c2)S1(=O)=O [Example 174] ?
10 to 100 nM

Could you tell me which IC50 is on file for CC(C)c1cc(Nc2cnc3c(c2)N2C(=O)C4(CC4)C[C@H]2CO3)ncc1-c1ccc(N2CCCC2=O)cc1 [Example 210] ?
≤ 1 nM

Could you tell me which IC50 is on file for Cc1nc2ncc(Nc3ccc(-c4ccc(C(=O)N(C)C)cc4)cn3)cc2o1 [Example 61] ?
100 to 1000 nM

Could you tell me which IC50 is on file for CC(C)S(=O)(=O)N1CCOc2ncc(Nc3ccc(-c4ccc(N5CCCC5=O)cc4)cn3)cc21 [Example 153] ?
100 to 1000 nM
